Molecular target: Insulin-like growth factor 1 receptor (Homo sapiens)
Assay: Inhibition of IGF1R in human MCF7 cells by Western blot analysis
Type: cell-based
readout.kind: pIC50
Recall that pIC50 is obtained by taking minus log10 of the concentration measured in molar.

Find the recorded pIC50 belonging to CN1CCN(c2ccc(C(=O)Nc3n[nH]c4c3CN(S(=O)(=O)c3cc(F)cc(F)c3)CC4)c(NC(=O)c3ccc[nH]3)c2)CC1 and report it. 7.10

* * *

Target: Insulin-like growth factor 1 receptor (Homo sapiens, UniProt P08069)
Sequence (P08069 31-736 limits assumed): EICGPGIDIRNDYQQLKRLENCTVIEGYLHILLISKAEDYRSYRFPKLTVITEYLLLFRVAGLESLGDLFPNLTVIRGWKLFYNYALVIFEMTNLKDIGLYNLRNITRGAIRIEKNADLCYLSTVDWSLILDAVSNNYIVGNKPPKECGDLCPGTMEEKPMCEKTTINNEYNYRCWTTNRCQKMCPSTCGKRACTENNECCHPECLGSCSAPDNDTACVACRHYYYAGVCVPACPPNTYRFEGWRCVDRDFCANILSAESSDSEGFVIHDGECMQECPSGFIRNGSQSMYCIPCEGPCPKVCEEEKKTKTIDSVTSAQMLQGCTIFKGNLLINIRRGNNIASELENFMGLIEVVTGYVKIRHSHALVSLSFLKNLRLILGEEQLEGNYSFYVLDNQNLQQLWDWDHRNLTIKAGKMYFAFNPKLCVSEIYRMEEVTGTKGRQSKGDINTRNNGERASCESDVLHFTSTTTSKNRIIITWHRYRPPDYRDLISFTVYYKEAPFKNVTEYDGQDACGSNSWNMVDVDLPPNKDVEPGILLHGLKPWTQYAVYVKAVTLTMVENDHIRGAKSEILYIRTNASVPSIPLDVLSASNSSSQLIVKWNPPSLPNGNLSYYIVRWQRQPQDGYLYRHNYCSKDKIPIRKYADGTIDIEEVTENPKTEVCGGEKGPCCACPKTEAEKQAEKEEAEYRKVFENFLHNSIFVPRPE
Sequence (P08069 741-1367 limits assumed): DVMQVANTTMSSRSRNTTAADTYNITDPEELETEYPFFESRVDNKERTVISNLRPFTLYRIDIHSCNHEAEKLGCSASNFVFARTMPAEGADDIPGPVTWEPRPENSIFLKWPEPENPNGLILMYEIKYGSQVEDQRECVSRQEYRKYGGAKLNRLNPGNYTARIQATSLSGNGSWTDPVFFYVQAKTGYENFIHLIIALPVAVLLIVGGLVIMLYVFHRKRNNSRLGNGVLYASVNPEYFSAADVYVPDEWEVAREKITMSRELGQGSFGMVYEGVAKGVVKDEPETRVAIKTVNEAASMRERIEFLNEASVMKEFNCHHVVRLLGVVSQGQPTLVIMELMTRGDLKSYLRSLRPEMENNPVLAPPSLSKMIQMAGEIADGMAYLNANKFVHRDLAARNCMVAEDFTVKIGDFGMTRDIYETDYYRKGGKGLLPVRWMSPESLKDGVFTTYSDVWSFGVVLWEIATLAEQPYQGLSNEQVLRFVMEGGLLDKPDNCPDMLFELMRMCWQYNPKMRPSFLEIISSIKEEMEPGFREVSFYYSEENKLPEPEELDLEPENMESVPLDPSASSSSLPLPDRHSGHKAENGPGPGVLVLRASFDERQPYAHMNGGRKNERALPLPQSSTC
Experiment: Inhibition of IGF1R autophosphorylation in human MCF7 cells by Western blot analysis
Type: cell-based
pIC50: −log10 of the molar value.
readout.kind: pIC50

Find the recorded pIC50 belonging to COc1ccc(Cl)cc1NC(=O)Nc1cc(C)nc2ccccc12 and report it. > 6.00
